B1: HEEH_KT_rd6_3546 (parent)
chain: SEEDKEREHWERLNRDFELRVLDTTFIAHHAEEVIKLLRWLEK

variants of: B1; assay: folding stability dG (cDNA display proteolysis); higher = more stable; conditions: PBS, room temperature
Answer each item with its documented folding stability dG.
Field: numeric (kcal/mol). Do not append units.

Data request: Find the recorded folding stability dG belonging to E11S and report it.
Data returned: 2.16

Data request: Next variant up: E2Q
Data returned: 1.62

Data request: Next variant up: A28L
Data returned: 1.99

Data request: Next variant up: R7W
Data returned: 1.39

Data request: Next variant up: H30M
Data returned: 2.34

Data request: Next variant up: E18W
Data returned: 2.88

Data request: Next variant up: H9E
Data returned: 1.2

Data request: Next variant up: R12N
Data returned: 1.35

Data request: Next variant up: H9W
Data returned: 2.17

Data request: Next variant up: S1A
Data returned: 1.28

Data request: Next variant up: E18M
Data returned: 2.15

Data request: Next variant up: D4N
Data returned: 1.44

Data request: Next variant up: E32H
Data returned: 1.42

Data request: Next variant up: T25E
Data returned: 1.31

Data request: Next variant up: D23A
Data returned: 2.35

Data request: Next variant up: R15W
Data returned: 2.45

Data request: Next variant up: W40T
Data returned: 0.373

Data request: Next variant up: K36C
Data returned: 2.09

Data request: Next variant up: I35R
Data returned: 1.12

Data request: Next variant up: T24E
Data returned: 0.926

Data request: Next variant up: K43L
Data returned: 1.36

Data request: Next variant up: L38F
Data returned: 1.39
